- Test system: HSC1 (primary human Schwann cells)
- test-protocol: % inhibition of CellTiter-Glo viability at highest tested concentration (72 h), relative to DMSO and benzethonium chloride controls; higher = more inhibition
Quick rule for you: % inhibition at 10% or higher means Y, lower means N.

>>> answer_label("O=P1(NCCCl)OCCCN1CCCl (stereo unspecified) [Ifosfamide] (max concentration tested 10000 nM)")
"N"

Form field: % inhibition at least 10%? Entry: COc1cc2nccc(Oc3ccc(NC(=O)C4(C(=O)Nc5ccc(F)cc5)CC4)cc3)c2cc1OC [Cabozantinib] (max concentration tested 1000 nM)
Y

Next record, please: N#Cc1ccc(C(c2ccc(C#N)cc2)n2cncn2)cc1 [Letrozole] (max concentration tested 10000 nM)
N

Please give the result for CC[C@@]1(O)C(=O)OCc2c1cc1n(c2=O)Cc2cc3c(CN(C)C)c(O)ccc3nc2-1 [Topotecan] (max concentration tested 10000 nM) too.
Y

Also CNC(=O)c1cc(Oc2ccc(NC(=O)Nc3cc(C(C)(C)C)nn3-c3ccc4ncccc4c3)c(F)c2)ccn1 [Rebastinib] (max concentration tested 1000 nM) ?
N

Try this molecule too: Cc1cnc(Nc2ccc(F)cc2Cl)nc1-c1c[nH]c(C(=O)N[C@H](CO)c2cccc(Cl)c2)c1 [VX-11E] (max concentration tested 2500 nM)
Y

----------
- Tested on: STS26T
- test-protocol: drug sensitivity score (DSS, CellTiter-Glo viability, 72 h) (DSS (dimensionless)); higher = more sensitive; extreme values may be limits of the assay
Quick list: drug sensitivity score per entry.
// print number alone

>>> measurement("C[C@H]1C[C@@H]2[C@H]([C@@H](O)C[C@@]3(C)[C@H]2CC[C@]3(O)C(=O)CO)[C@@]2(C)C=CC(=O)C=C12 [Methylprednisolone] (max concentration tested 10000 nM)")
0
>>> measurement("C/C(=C\\c1csc(C)n1)[C@@H]1C[C@@H]2O[C@]2(C)CCC[C@H](C)[C@H](O)[C@@H](C)C(=O)C(C)(C)[C@@H](O)CC(=O)N1 [Ixabepilone] (max concentration tested 1000 nM)")
4.72

Tell me reported drug sensitivity score for CCn1c(-c2nonc2N)nc2cnc(Oc3cccc(NC(=O)c4ccc(OCCN5CCOCC5)cc4)c3)cc21 (max concentration tested 10000 nM) , tested with STS26T.
5.65

----------
Documented relative IC50 across a set of compounds
- Tested on: HS-PSS
- test-protocol: relative IC50 (inflection point of fitted dose-response curve, CellTox-Green cytotoxicity, 72 h; top asymptote may be below 50%); higher = less potent

The cases that follow already have their relative IC50 on record.
>>> measurement("Cc1c(Cn2c(C)nc3c(C(=O)O)cc(N4CCOCC4)cc32)cccc1C(F)(F)F")
"> 10 µM"
>>> measurement("Nc1nc2[nH]cc(CCc3ccc(C(=O)N[C@@H](CCC(=O)O)C(=O)O)cc3)c2c(=O)[nH]1")
"> 10 µM"
>>> measurement("CN(C)CCN1C(=O)c2cccc3cc(N)cc(c23)C1=O [Amonafide]")
"2.15 µM"
>>> measurement("Cc1cnc(-c2ccccc2C(C)C)nc1NCc1ccc(-n2ccnn2)cc1")
"> 10 µM"
>>> measurement("COc1cc(Nc2ncc3c(n2)-c2ccc(Cl)cc2C(c2c(F)cccc2OC)=NC3)ccc1C(=O)O")
"> 10 µM"

Need relative IC50, item "O=C(CCCCCCC(=O)Nc1ccccc1)NO"
2.45 µM

Another compound: "Clc1ccccc1C(c1ccccc1)(c1ccccc1)n1cccn1"
> 1 µM

"CNc1ncc2cc(-c3cc(NC(=O)NCCC(C)(C)C)c(F)cc3C)c(C)nc2n1" ?
3.59 µM

Another compound to check: "CC(C)(C#N)c1cc(Cn2cncn2)cc(C(C)(C)C#N)c1"
> 10 µM

Another compound to look at: "CS(=O)(=O)N1CCc2c(-c3cnc(N)nc3)nc(N3CCOCC3)nc21"
> 10 µM
